- Test system: CCRIS mutagenicity, Ames/micronucleus/aberration tests
- assay_comment: CCRIS mutagenicity studies
- experimental_setup: Test System: AMES SALMONELLA TYPHIMURIUM; Strain/Indicator: TA98; Metabolic Activation: RAT, LIVER, S-9, KANECHLOR 500; Method: PREINCUBATION
The source made the active and inactive calls. No rule for the calls is given here.
Respond using exactly one of the listed classes: T (active), F (inactive)

Some solved entries appear below for comparison.
- Nc1cc([N+](=O)[O-])cc([N+](=O)[O-])c1: T
- O=[N+]([O-])c1cccc(S(=O)(=O)O)c1: F
- CC(=O)Nc1ccc2ncccc2c1: F

# lookup: test call for `Nc1ccccc1[N+](=O)[O-]`
F

# lookup: test call for `O=[N+]([O-])c1ccc(Br)cc1`
F

# lookup: test call for `Nc1ccc(Cl)cc1[N+](=O)[O-]`
T

# lookup: test call for `CC(=O)Nc1cccc2ncccc12`
F

# lookup: test call for `Nc1ccc([N+](=O)[O-])cc1Cl`
T

# lookup: test call for `O=C(Cl)c1ccc([N+](=O)[O-])cc1`
F

====

- Tested on: CCRIS mutagenicity, Ames/micronucleus/aberration tests
- assay_comment: CCRIS mutagenicity studies
- experimental_setup: Test System: AMES SALMONELLA TYPHIMURIUM; Strain/Indicator: TA100; Metabolic Activation: RAT, INTACT HEPATOCYTES, AROCLOR 1254; Method: PREINCUBATION
- Excerpt: The CCRIS database contains chemical records with carcinogenicity, mutagenicity, tumor promotion, and tumor inhibition test results. It was developed by the National Cancer Institute (NCI). Data are derived from studies cited in primary journals, current awareness tools, NCI reports, and other sources. Test results have been reviewed by experts in carcinogenesis and mutagenesis. CCRIS provides historical information from the years 1985 - 2011. It is no longer updated. […]
The source made the active and inactive calls. No rule for the calls is given here.
metric_name: mutagenic call

Recorded results for 4 molecules are shown here.
* Cc1ccc2ccc3c4ccccc4cc4ccc1c2c43 | active; positive
* Cc1cc2cccc3ccc4cc5ccccc5c1c4c32 | active; positive
* Cc1cccc2ccc3cc4ccccc4cc3c12 | active; positive
* Cc1c2ccccc2cc2c1ccc1ccccc12 | active; positive

Kindly consider the entry below.
What reported mutagenic call corresponds to `Cc1cc2cc3ccccc3c3ccc4cccc1c4c23` on CCRIS mutagenicity, Ames/micronucleus/aberration tests?
active; positive

====

- Test system: CCRIS mutagenicity, Ames/micronucleus/aberration tests
- assay_comment: CCRIS mutagenicity studies
- experimental_setup: Test System: AMES SALMONELLA TYPHIMURIUM; Strain/Indicator: TA100(NR); Metabolic Activation: RAT, LIVER, S-9, PCB; Method: PREINCUBATION
Active and inactive are the calls of the source. How the calls were made is not given here.
metric_name: mutagenic call

* O=[N+]([O-])c1ccc(Nc2ncnc3c2ncn3-c2ccc([N+](=O)[O-])cc2)cc1 | inactive; negative
* CCOc1ccc([N+](=O)[O-])cc1 | inactive; negative
* Nc1nc(-c2ccc([N+](=O)[O-])cc2)nc2c1ncn2[C@H]1C[C@H](O)[C@@H](CO)O1 | active; positive
* C=COc1ccc([N+](=O)[O-])cc1 | active; positive

====

- System: CCRIS mutagenicity, Ames/micronucleus/aberration tests
- assay_comment: CCRIS mutagenicity studies
- experimental_setup: Test System: AMES SALMONELLA TYPHIMURIUM; Strain/Indicator: TA98; Metabolic Activation: RAT, LIVER, S-9, AROCLOR 1254 (10%); Method: STANDARD PLATE
Activity calls are given as the source filed them. No rule for the calls is given here.
metric_name: mutagenic call

Recorded results for 6 compounds are shown here.
* Oc1ccccc1-c1ccccc1 | inactive; negative
* CCCCC(CC)COC(=O)c1ccc(N(C)C)c([N+](=O)[O-])c1 (configuration not stated) | active; positive
* C[CH2][Ge]([Cl])([CH2]C)[CH2]C | inactive; negative
* C[C@]12C=CC(=O)C=C1CC[C@@H]1[C@@H]2C(=O)C[C@@]2(C)[C@H]1CC[C@]2(O)C(=O)CO | inactive; negative
* CCN(CC)c1ccc(C(=C2C=CC(=[N+](CC)CC)C=C2)c2ccc(N(CC)CC)cc2)cc1 | inactive; negative
* CCN(CC)c1ccc2c(-c3ccc(S(=O)(=O)O)cc3S(=O)(=O)[O-])c3ccc(=[N+](CC)CC)cc-3oc2c1 | active; positive

Kindly consider the entry below.
What reported mutagenic call corresponds to `c1ccc2c(c1)ccc1cc3c(ccc4ccncc43)cc12` on CCRIS mutagenicity, Ames/micronucleus/aberration tests?
active; positive
